sequences and their reported self-splicing fitness (ln)
PROCEDURE TEXT: self-splicing fitness, log relative to wild type (ln ratio); higher = more splicing; Tetrahymena group I intron in knt gene, E. coli kanamycin selection, DiMSum; sequences stand for … in CUCUCU…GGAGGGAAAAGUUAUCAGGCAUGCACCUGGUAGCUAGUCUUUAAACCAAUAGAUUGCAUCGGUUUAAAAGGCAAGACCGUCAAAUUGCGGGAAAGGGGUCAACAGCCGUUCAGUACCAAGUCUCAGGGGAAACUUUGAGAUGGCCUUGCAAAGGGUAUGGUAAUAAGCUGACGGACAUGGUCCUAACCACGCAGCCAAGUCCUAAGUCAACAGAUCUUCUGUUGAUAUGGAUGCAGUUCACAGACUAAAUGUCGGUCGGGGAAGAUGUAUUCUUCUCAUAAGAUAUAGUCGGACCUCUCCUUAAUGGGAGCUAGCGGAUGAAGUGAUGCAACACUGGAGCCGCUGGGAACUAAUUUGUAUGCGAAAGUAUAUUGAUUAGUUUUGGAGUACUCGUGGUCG;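 note: selection with 25 µg/mL kanamycin versus none on LB agar overnight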
PARTICULARS: 30 °C
Just the number, please.

Incoming: Any idea what self-splicing fitness (ln) was measured for CCUAAGCAAUAUUACGCGAG ?
Outgoing: -4.48

* * *

self-splicing fitness (ln) overview
PROCEDURE TEXT: self-splicing fitness, log relative to wild type (ln ratio); higher = more splicing; Tetrahymena group I intron in knt gene, E. coli kanamycin selection, DiMSum; sequences stand for … in CUCUCU…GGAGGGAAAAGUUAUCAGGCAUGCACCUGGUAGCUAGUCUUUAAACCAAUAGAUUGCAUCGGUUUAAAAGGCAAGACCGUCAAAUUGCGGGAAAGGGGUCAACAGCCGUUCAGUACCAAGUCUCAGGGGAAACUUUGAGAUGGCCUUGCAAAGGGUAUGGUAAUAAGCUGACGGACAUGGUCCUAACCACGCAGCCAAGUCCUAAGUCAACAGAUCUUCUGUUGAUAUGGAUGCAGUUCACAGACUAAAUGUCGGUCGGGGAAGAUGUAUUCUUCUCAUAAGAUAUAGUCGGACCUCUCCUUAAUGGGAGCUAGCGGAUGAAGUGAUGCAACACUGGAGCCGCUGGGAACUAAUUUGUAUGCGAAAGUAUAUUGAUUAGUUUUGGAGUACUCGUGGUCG
PARTICULARS: 30 °C
Give your answer as a number; write no unit.

Example results:
{"SEQUENCE DATA": "AUCGAGCAAUAUUACGGGUA", "READOUT VALUE": -2.85}
{"SEQUENCE DATA": "CGGUAGCAAUAUUACGCCUC", "READOUT VALUE": -2.36}
{"SEQUENCE DATA": "GCUAAGCAAUAUUACGGUUC", "READOUT VALUE": -1.72}
{"SEQUENCE DATA": "ACGGAGCAAUAUUACGUAAG", "READOUT VALUE": -3.18}
{"SEQUENCE DATA": "ACCGAGCAAUAUUACGUAUU", "READOUT VALUE": -3.21}

Incoming: For the sequence shown here, ACCCAGCAAUAUUACGCCUA , give the reported self-splicing fitness (ln).
Outgoing: -1.15

Incoming: For the sequence shown here, AUAGAGCAAUAUUACGGCGG , give the reported self-splicing fitness (ln).
Outgoing: -1.71

Incoming: Look up self-splicing fitness (ln): UGUUAGCAAUAUUACGGGCA
Outgoing: -0.664

* * *

PROCEDURE TEXT: self-splicing fitness, log relative to wild type (ln ratio); higher = more splicing; Tetrahymena group I intron in knt gene, E. coli kanamycin selection, DiMSum; sequences stand for … in CUCUCU…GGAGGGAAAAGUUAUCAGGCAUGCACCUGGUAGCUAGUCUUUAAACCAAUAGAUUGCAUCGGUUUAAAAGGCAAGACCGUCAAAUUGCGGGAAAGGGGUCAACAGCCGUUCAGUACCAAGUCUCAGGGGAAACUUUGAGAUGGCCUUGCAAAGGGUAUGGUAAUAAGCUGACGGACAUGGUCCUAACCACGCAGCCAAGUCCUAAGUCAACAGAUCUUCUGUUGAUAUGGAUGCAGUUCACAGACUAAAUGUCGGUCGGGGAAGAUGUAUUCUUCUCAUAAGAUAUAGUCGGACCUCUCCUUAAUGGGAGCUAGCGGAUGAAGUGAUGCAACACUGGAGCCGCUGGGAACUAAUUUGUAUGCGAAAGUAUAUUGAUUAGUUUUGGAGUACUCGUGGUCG
PARTICULARS: 37 °C
PARAMETER: self-splicing fitness (ln)
Please reply with the number alone, leaving off any unit.

{"SEQUENCE DATA": "ACCGAGCAAUAUUACGAGAU", "PARAMETER": "self-splicing fitness (ln)", "READOUT VALUE": -2.48}
{"SEQUENCE DATA": "AUCUAGCAAUAUUACGCUGA", "PARAMETER": "self-splicing fitness (ln)", "READOUT VALUE": -0.501}
{"SEQUENCE DATA": "GCCCAGCAAUAUUACGCUAG", "PARAMETER": "self-splicing fitness (ln)", "READOUT VALUE": -2.34}
{"SEQUENCE DATA": "UCAAAGCAAUAUUACGAUAA", "PARAMETER": "self-splicing fitness (ln)", "READOUT VALUE": -0.335}
{"SEQUENCE DATA": "AGAGAGCAAUAUUACGCAUG", "PARAMETER": "self-splicing fitness (ln)", "READOUT VALUE": -1.9}

Incoming: I have this sequence here, AGCCAGCAAUAUUACGUGUA , and I need its recorded self-splicing fitness (ln).
Outgoing: -1.34

Incoming: self-splicing fitness (ln) for AAGCAGCAAUAUUACGAUUA ?
Outgoing: -0.962

Incoming: Endpoint output: self-splicing fitness (ln) of UCCAAGCAAUAUUACGGCAA . Value?
Outgoing: -0.0878

Incoming: // self-splicing fitness (ln) lookup, key: UUAUAGCAAUAUUACGGCUA
Outgoing: -0.316

* * *

self-splicing fitness (ln): recorded values
PROCEDURE TEXT: self-splicing fitness, log relative to wild type (ln ratio); higher = more splicing; Tetrahymena group I intron in knt gene, E. coli kanamycin selection, DiMSum; sequences stand for … in CUCUCU…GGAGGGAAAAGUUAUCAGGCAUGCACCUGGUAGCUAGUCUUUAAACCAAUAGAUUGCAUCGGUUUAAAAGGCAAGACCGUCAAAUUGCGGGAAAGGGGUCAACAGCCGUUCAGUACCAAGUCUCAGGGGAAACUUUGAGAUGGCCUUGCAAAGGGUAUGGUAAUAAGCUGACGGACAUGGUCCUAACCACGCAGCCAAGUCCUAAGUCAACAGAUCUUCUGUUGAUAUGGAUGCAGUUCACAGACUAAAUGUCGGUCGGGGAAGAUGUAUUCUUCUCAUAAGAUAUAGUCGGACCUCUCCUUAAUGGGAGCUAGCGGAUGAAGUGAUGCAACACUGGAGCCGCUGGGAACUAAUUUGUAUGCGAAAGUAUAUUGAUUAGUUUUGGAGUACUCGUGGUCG
PARTICULARS: 37 °C
Write the value as a bare number.

{"SEQUENCE DATA": "ACGCAGCAAUAUUACGUCGU", "self-splicing fitness (ln)": -1.6}
{"SEQUENCE DATA": "ACAUAGCAAUAUUACGACUC", "self-splicing fitness (ln)": -0.29}
{"SEQUENCE DATA": "AGUCAGCAAUAUUACGCUGA", "self-splicing fitness (ln)": -2.24}
{"SEQUENCE DATA": "CUACAGCAAUAUUACGUGCU", "self-splicing fitness (ln)": -2}
{"SEQUENCE DATA": "GACGAGCAAUAUUACGAUAG", "self-splicing fitness (ln)": -3.92}
{"SEQUENCE DATA": "AUGGAGCAAUAUUACGAAUC", "self-splicing fitness (ln)": -1.97}

As a next step, examine the sequence that follows.
Incoming: Which self-splicing fitness (ln) value is on record for GAUAAGCAAUAUUACGCAAU ?
Outgoing: -0.936

* * *

PROCEDURE TEXT: self-splicing fitness, log relative to wild type (ln ratio); higher = more splicing; Tetrahymena group I intron in knt gene, E. coli kanamycin selection, DiMSum; sequences stand for … in CUCUCU…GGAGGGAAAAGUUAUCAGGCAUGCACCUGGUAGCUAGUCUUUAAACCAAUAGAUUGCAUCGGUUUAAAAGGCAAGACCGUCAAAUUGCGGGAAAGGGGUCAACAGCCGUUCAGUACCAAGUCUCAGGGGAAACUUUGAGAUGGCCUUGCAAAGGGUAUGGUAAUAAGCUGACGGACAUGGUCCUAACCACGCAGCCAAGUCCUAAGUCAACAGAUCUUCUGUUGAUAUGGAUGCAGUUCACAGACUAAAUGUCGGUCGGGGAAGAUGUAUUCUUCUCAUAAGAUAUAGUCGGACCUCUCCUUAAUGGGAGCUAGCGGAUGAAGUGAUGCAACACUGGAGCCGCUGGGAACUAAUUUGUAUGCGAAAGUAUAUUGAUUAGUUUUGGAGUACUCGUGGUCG
PARTICULARS: 37 °C
PARAMETER: self-splicing fitness (ln)

# annotated cases, reported self-splicing fitness (ln) shown
{"SEQUENCE DATA": "ACCAAGCAAUAUUACGGCUC", "self-splicing fitness (ln)": -0.63}
{"SEQUENCE DATA": "CUUAAGCAAUAUUACGUAGA", "self-splicing fitness (ln)": -2.82}
{"SEQUENCE DATA": "AAGGAGCAAUAUUACGCAGA", "self-splicing fitness (ln)": -2.56}
{"SEQUENCE DATA": "AUAGAGCAAUAUUACGUGCA", "self-splicing fitness (ln)": -0.162}

Incoming: What does the data say about its self-splicing fitness (ln)? Entry: AACUAGCAAUAUUACGAUCG
Outgoing: 0.0491
